Test: Quantitative High-Throughput Screen for Regulators of Epigenetic Control; note: nearly all actives have a fitted effect of over 60% in size
Settings: murine LDR cells, GFP reporter derepression, 30 h; series mostly up to 53.9 µM
In all, about 280,000 compounds went through this assay and about 540 (0.19%) were called active. Roughly 2% stayed inconclusive and do not appear here. Calls come from the whole dose curve; as a rule, active = well fitted activation curve with a large enough effect; inconclusive = small, poorly fitted or top-dose-only effect; inactive = flat fitted curve, though single readings scatter. The entries come from a sample that favours actives as a whole.
Return exactly one item of active, inactive

| COMPOUND | CAT |
| --- | --- |
| CCOC(=O)CNC(=O)c1cc2c(=O)n3cccc(C)c3nc2s1 | inactive |
| COc1ccc(OC)c(NC(=O)C2CCCN(S(=O)(=O)c3ccc4c(c3)CCCC(=O)N4)C2)c1 (stereo unspecified) | inactive |

// return assay outcome for CC(=O)c1ccc(NC(c2ccc(F)cc2)c2nnc(-c3ccccc3)o2)cc1 (stereo unspecified)
inactive

# outcome recorded in this test, key = CCCC(=O)Nc1nnc(-c2ccccc2)o1
inactive

Record lookup: outcome of this test for CC(=O)N1c2ccc(S(=O)(=O)N3CCCCCC3)cc2CC1C(=O)NCc1ccccc1C (stereo unspecified) ?
inactive

Give the logged outcome of this assay for the following compound: CCCCCCc1cc2cc(-c3nnc(-c4ccccc4)o3)c(=O)oc2cc1O
active

What call does the record list for CCN1/C(=C/C(=S)Nc2ccccc2)Sc2ccccc21 ?
inactive

Name the outcome recorded for COc1ccc(S(=O)(=O)c2c(Nc3cccc(Cl)c3)sc(C(=O)c3ccccc3)c2N)cc1 in the assay.
inactive

What classification did Cc1ccc(S(=O)(=O)N(CC(=O)Nc2ccc(Cl)cc2Cl)c2ccccc2C)cc1 end up with in this test?
inactive

====

Test: Quantitative High-Throughput Screen for Regulators of Epigenetic Control; note: nearly all actives have a fitted effect of over 60% in size
Settings: murine LDR cells, GFP reporter derepression, 30 h; series mostly up to 53.9 µM
Out of some 280,000 compounds screened, about 540 (0.19%) were called active. Inconclusive results (about 2%) are left out. Calls come from the whole dose curve; as a rule, active = well fitted activation curve with a large enough effect; inconclusive = small, poorly fitted or top-dose-only effect; inactive = flat fitted curve, though single readings scatter. Only a selection was taken, and actives are over-represented in it overall.
Answer with one of the outcomes active, inactive

Test call for this compound, please: Cc1nn(C)cc1N1C(=O)c2cccc3c(N)ccc(c23)C1=O
inactive

What was the test verdict on O=C(Cn1nc(Cc2cccnc2)c2ccccc2c1=O)N1CCN(c2ccccc2F)CC1 ?
inactive

Please share the test call associated with CCc1ccc(NC(=O)c2nn(-c3ccc(C)cc3)c(=O)n(C)c2=O)cc1 .
inactive

Dear all, I need the recorded test outcome for O=C(COc1ccc(Cl)cc1)N(Cc1ccco1)Cc1ccco1 , thank you.
inactive

Fill in: this test's call for CSc1ccc(C2c3c(oc4ccccc4c3=O)C(=O)N2CCCN2CCOCC2)cc1 (stereo not given) is ___
inactive

Write down the call the test reported for this compound. Item: COc1ccccc1CN1CCC(CNC(=O)c2cnn(-c3ccccc3Cl)c2C2CCN(C(=O)OC(C)(C)C)CC2)CC1
inactive

Identify the outcome logged in this assay for the compound shown: C/[N+]([O-])=C\c1ccc([N+](=O)[O-])o1
inactive

Test call, this compound: Cc1ccc(CCNC(=O)Cn2c(-c3cccs3)cc3cc(F)ccc32)cc1
inactive

Fill in: this test's call for CC1Cc2cc(S(=O)(=O)CCC(=O)Nc3ccc(F)c(Cl)c3)ccc2N1C(=O)C1CC1 (stereo not given) is ___
inactive

Would you mind telling me which call this test gave COc1cccc(C(=O)c2sc3nc(-c4ccccc4)cc(C(F)(F)F)c3c2N)c1 ?
active

Hey, what did the test say about COc1ccc(C(=O)Nc2cccc(C(=O)OCc3cc(=O)n4c5c(sc4n3)CCCC5)c2)cc1 ?
inactive

Test call, this compound: Nc1ccc2c3c(cccc13)C(=O)NC2=O
active

Would you mind telling me which call this test gave CCN1C(=O)c2cccc3c(N)ccc1c23 ?
inactive

Per the assay record, what outcome was assigned to CCCC(=O)Nc1cc(C(=O)NCc2ccc(OC)cc2)ccc1S(=O)(=O)c1ccc(Cl)cc1 ?
inactive

Data origin: PubChem BioAssay AID1865
